tested on: NCI-H209 (Small Cell Lung Carcinoma); assay: Bliss excess, mean over the matrix (fraction); higher = more synergy;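 note: after 72 h of two-drug dosing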
Rule: rule met for Bliss excess not less than -0.006, rule not met for anything less.

Query: Is reported Bliss excess greater than or equal to -0.006 here: NC1(C(=O)N[C@@H](CCO)c2ccc(Cl)cc2)CCN(c2ncnc3[nH]ccc23)CC1 [Capivasertib] + CC(=O)c1c(C)c2cnc(Nc3ccc(N4CCNCC4)cn3)nc2n(C2CCCC2)c1=O [Palbociclib] (first compound max 10 µM, 7x7, partner max 10 µM)
Response: rule not met

====

Below is a list of entries, each paired with its recorded Bliss excess value.
test system: TGBC1TKB (Biliary Tract Carcinoma); assay: Bliss excess, mean over the matrix (fraction); higher = more synergy
Enter the number alone.

Molecule	Bliss excess
Cc1c2c(nn1C)CSCc1cc(n(C)n1)CSc1cc(c3ccccc3c1)OCCCc1c(C(=O)O)n(C)c3c-2c(Cl)ccc13 [AZD5991] + Cn1cnc2c(F)c(Nc3ccc(Br)cc3Cl)c(C(=O)NOCCO)cc21 [Selumetinib] (first compound max 1 µM, 7x7, partner max 3 µM)	-0.0181
Cc1cc2ncnn2cc1Nc1ncc2c(n1)n(C1CCOCC1)c(=O)n2C [AZD7648] + C=CCn1c(=O)c2cnc(Nc3ccc(N4CCN(C)CC4)cc3)nc2n1-c1cccc(C(C)(C)O)n1 [AZD1775] (first compound max 10 µM, partner max 1 µM)	-0.0362
C=CCn1c(=O)c2cnc(Nc3ccc(N4CCN(C)CC4)cc3)nc2n1-c1cccc(C(C)(C)O)n1 [AZD1775] + C1CN(CCC1(C(=O)N[C@@H](CCO)C2=CC=C(C=C2)Cl)N)C3=NC=NC4=C3C=CN4 [Capivasertib] (first compound max 3 µM, partner max 3 µM)	-0.0061

Query: # returns recorded Bliss excess (system: TGBC1TKB (Biliary Tract Carcinoma)) for Cc1cc2ncnn2cc1Nc1ncc2c(n1)n(C1CCOCC1)c(=O)n2C [AZD7648] + COc1cc([C@@H]2c3cc4c(cc3[C@@H](O[C@@H]3O[C@@H]5CO[C@@H](C)O[C@H]5[C@H](O)[C@H]3O)[C@H]3COC(=O)[C@H]23)OCO4)cc(OC)c1O [Etoposide] (first compound max 10 µM, 7x7, partner max 10 µM)
Response: 0.0108

Query: Repeat with Cn1cnc2c(F)c(Nc3ccc(Br)cc3Cl)c(C(=O)NOCCO)cc21 [Selumetinib] + CCN(CCO)CCCOc1ccc2c(Nc3cc(CC(=O)Nc4cccc(F)c4)[nH]n3)ncnc2c1 [AZD2811] (first compound max 10 µM, 7x7, partner max 1 µM)
Response: 0

====

tested on: YAPC (Pancreatic Carcinoma); assay: Bliss excess, mean over the matrix (fraction); higher = more synergy
Rule: Yes for Bliss excess not less than -0.01, No for anything less.

Would you please look over these solved cases?
Compound	Assigned Label
N#Cc1cnc(Nc2cc(NC[C@H]3CNCCO3)c(C(F)(F)F)cn2)cn1 [SRA737] + C=CCn1c(=O)c2cnc(Nc3ccc(N4CCN(C)CC4)cc3)nc2n1-c1cccc(C(C)(C)O)n1 [AZD1775] (first compound max 10 µM, partner max 1 µM)	Yes
O=C(c1cc(Cc2n[nH]c(=O)c3ccccc23)ccc1F)N1CCN(C(=O)C2CC2)CC1 [Olaparib] + COc1nnc2ccc(N3CCC(c4ccc(OCCN5CCN(C)C(=O)[C@H]5C)cc4)CC3)nn12 [AZD5153] (first compound max 10 µM, 7x7, partner max 1 µM)	No
CC1(C)CCC(CN2CCN(c3ccc(C(=O)NS(=O)(=O)c4ccc(NCC5CCOCC5)c([N+](=O)[O-])c4)c(Oc4cnc5[nH]ccc5c4)c3)CC2)=C(c2ccc(Cl)cc2)C1 [Venetoclax] + CN(C)CCCOc1ccc(-c2ccc3ncc4c(c3c2)n(C2CCOCC2)c(=O)n4C)cn1 [AZD0156] (first compound max 1 µM, 7x7, partner max 1 µM)	No

Query: Is reported Bliss excess greater than or equal to -0.01 here: C[C@@H](c1ccc2nccn2c1)n1nnc2ncc(-c3cnn(C)c3)nc21 [Savolitinib] + CC1(C)CCC(CN2CCN(c3ccc(C(=O)NS(=O)(=O)c4ccc(NCC5CCOCC5)c([N+](=O)[O-])c4)c(Oc4cnc5[nH]ccc5c4)c3)CC2)=C(c2ccc(Cl)cc2)C1 [Venetoclax] (first compound max 1 µM, 7x7, partner max 1 µM)
Response: No

Query: Repeat with Cc1cc2ncnn2cc1Nc1ncc2c(n1)n(C1CCOCC1)c(=O)n2C [AZD7648] + C=CCn1c(=O)c2cnc(Nc3ccc(N4CCN(C)CC4)cc3)nc2n1-c1cccc(C(C)(C)O)n1 [AZD1775] (first compound max 10 µM, partner max 1 µM)
Response: Yes

Query: Repeat with COc1nnc2ccc(N3CCC(c4ccc(OCCN5CCN(C)C(=O)[C@H]5C)cc4)CC3)nn12 [AZD5153] + C[C@@H]1COCCN1C2=NC(=NC(=C2)C3(CC3)[S@](=N)(=O)C)C4=C5C=CNC5=NC=C4 [AZD6738] (first compound max 1 µM, 7x7, partner max 10 µM)
Response: Yes

Query: Repeat with Cc1nc(Nc2ncc(C(=O)Nc3c(C)cccc3Cl)s2)cc(N2CCN(CCO)CC2)n1 [Dasatinib] + CC(=O)Nc1cccc(-n2c(=O)n(C3CC3)c(=O)c3c(Nc4ccc(I)cc4F)n(C)c(=O)c(C)c32)c1 [Trametinib] (first compound max 2 µM, 7x7, partner max 1 µM)
Response: Yes

Query: Repeat with C[C@@H](Nc1cc(F)cc(F)c1)c1cc(C(=O)N(C)C)cc2c(=O)cc(N3CCOCC3)oc12 [AZD8186] + C1CN(CCC1(C(=O)N[C@@H](CCO)C2=CC=C(C=C2)Cl)N)C3=NC=NC4=C3C=CN4 [AZD5363] (first compound max 10 µM, 7x7, partner max 10 µM)
Response: No

Query: Repeat with CN(CCO)CC[C@H](CSc1ccccc1)Nc1ccc(S(=O)(=O)NC(=O)c2ccc(N3CCC([C@@H](O)c4ccccc4-c4ccc(Cl)cc4)CC3)cc2)cc1S(=O)(=O)C(F)(F)F [AZD4320] + C1CN(CCC1(C(=O)N[C@@H](CCO)C2=CC=C(C=C2)Cl)N)C3=NC=NC4=C3C=CN4 [Capivasertib] (first compound max 1 µM, 7x7, partner max 3 µM)
Response: No

Query: Repeat with COc1nnc2ccc(N3CCC(c4ccc(OCCN5CCN(C)C(=O)[C@H]5C)cc4)CC3)nn12 [AZD5153] + CC1(C)CCC(CN2CCN(c3ccc(C(=O)NS(=O)(=O)c4ccc(NCC5CCOCC5)c([N+](=O)[O-])c4)c(Oc4cnc5[nH]ccc5c4)c3)CC2)=C(c2ccc(Cl)cc2)C1 [Venetoclax] (first compound max 1 µM, 7x7, partner max 1 µM)
Response: No
